Molecular target: HDAC8 (Homo sapiens)
Construct: purchased Enzo Life Sciences (Farmingdale, N.Y.) BMIL-SE145-0100
Assay: HDAC8 inhibition, modified Fluor-de-Lys assay
Type: biochemical
Details: 3 h pre-incubation, 1.3 nM enzyme, 200 μM substrate BML-KI178; read-out: HDAC-8 IC50
endpoint: IC50

CCC(=O)CCCCC[C@H](NC(=O)[C@H]1CC12CCN(CC)CC2)c1[nH]c2nc1C(=O)NCCC/C=C/c1cccc-2c1 ... > 900 nM

API: the following record is the query input.
Prompt line: Kindly state the measured IC50 obtained for CCC(=O)CCCCC[C@H](NC(=O)[C@H]1CC12CCN(CC)CC2)c1[nH]c2nc1C(=O)NCCC/C=C\c1cccc-2c1 with HDAC8 (Homo sapiens).
Response line: > 900 nM

###

Target: HDAC2 (Homo sapiens)
Construct: Full length human HDAC2-FLAG was expressed in baculovirus infected Sf9 cells; FLAG (C); host or cells: baculovirus infected Sf9 cells
Sequence (Q92769 whole entry): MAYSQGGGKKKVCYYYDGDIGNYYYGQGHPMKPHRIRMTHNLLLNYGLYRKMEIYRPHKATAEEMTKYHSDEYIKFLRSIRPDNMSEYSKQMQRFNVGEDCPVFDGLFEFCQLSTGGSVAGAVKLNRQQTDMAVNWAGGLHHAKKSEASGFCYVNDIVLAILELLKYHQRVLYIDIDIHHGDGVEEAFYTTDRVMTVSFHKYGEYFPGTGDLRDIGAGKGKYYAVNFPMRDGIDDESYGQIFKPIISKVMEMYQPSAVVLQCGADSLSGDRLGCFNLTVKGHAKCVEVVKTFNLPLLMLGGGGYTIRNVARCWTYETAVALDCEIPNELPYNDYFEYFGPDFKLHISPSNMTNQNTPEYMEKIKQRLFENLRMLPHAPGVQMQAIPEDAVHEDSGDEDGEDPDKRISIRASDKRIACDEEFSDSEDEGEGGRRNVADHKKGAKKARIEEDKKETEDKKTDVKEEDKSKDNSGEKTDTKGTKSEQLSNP
Assay: HDAC2 inhibition, modified Fluor-de-Lys assay
Type: biochemical
Conditions: 3 h pre-incubation, […] enzyme, 40 μM substrate BML-KI104; read-out: HDAC-2 IC50
endpoint: IC50 (nM)
Write it as a number; the unit nM goes unstated.

CCC(=O)CCCCC[C@@H]1NC(=O)[C@H]2CC23CCN(CCCOCCCn2ccc4cc(ccc4c2=O)-c2cnc1[nH]2)CC3 ... 8.5
CCC(=O)CCCCC[C@@H]1NC(=O)[C@H]2CC23CCN(CCCOCCn2ccc4cc(ccc4c2=O)-c2cnc1[nH]2)CC3 ... 22

Consider the record given below.
Prompt line: For the compound CCC(=O)CCCCC[C@@H]1NC(=O)[C@H]2CC23CCN(CCCCCCCCn2ccc4cc(c(OC)cc4c2=O)-c2cnc1[nH]2)CC3 , what IC50 is on record?
Response line: 0.31

###

Below, each entry is listed alongside its reported pIC50.
Target: HDAC3/SMRT heterodimer (Homo sapiens, UniProt O15379)
Construct: FLAG (C)
Sequence (O15379 whole entry): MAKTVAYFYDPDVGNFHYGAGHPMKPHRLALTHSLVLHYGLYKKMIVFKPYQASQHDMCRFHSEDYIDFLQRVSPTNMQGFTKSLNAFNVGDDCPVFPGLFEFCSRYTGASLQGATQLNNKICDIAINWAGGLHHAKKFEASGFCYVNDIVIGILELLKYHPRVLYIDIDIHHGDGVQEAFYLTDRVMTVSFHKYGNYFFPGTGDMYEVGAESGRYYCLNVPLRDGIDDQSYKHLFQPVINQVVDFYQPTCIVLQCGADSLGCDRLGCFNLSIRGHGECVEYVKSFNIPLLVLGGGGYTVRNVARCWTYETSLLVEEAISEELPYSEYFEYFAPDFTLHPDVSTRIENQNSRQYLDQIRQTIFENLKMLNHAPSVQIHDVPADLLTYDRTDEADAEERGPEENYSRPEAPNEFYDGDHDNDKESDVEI
Sequence (Q9Y618 1-899 partner limits assumed): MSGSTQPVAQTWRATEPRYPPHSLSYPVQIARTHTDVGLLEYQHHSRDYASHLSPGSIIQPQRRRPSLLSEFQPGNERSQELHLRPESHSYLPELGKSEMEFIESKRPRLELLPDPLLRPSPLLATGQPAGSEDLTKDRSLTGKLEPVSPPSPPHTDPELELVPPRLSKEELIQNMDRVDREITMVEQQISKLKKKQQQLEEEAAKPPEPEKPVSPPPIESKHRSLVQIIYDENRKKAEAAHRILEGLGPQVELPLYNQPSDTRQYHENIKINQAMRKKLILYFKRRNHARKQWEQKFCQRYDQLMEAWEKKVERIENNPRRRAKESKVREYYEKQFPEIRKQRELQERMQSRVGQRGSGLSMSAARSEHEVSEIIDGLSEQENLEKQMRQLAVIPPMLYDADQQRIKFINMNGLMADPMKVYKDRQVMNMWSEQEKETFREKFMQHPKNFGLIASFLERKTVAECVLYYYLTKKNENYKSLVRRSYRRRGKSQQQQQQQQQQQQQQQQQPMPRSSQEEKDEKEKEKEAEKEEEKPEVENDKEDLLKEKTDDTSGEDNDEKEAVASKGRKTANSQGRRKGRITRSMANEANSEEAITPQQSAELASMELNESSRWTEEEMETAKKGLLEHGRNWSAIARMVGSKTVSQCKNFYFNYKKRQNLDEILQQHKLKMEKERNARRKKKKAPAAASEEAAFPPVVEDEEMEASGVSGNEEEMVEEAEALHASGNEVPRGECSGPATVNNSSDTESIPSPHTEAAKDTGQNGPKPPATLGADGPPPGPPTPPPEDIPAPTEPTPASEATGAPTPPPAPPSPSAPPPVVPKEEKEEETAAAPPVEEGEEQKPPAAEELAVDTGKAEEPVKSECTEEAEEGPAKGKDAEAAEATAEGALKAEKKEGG
Experiment: HDAC3/SMRT inhibition, modified Fluor-de-Lys assay
Details: 3 h pre-incubation, 0.3 nM enzyme, 20 μM substrate BML-KI104, read-out: HDAC-3 IC50
Scale: pIC50 equals -log10([C]), with [C] in mol/L.

# example entries with known answers
CCC(=O)CCCCC[C@H](NC(=O)[C@H]1CC12CCN(CC)CC2)c1[nH]c2nc1C(=O)NCCC/C=C/c1cccc-2c1 [Compound 15] ... 7.74
CCC(=O)CCCCC[C@@H]1NC(=O)[C@H]2CC23CCN(CCOCCn2ccc4cc(ccc4c2=O)-c2cnc1[nH]2)CC3 [Compound 4] ... 8.15
CCC(=O)CCCCC[C@@H]1NC(=O)[C@H]2CC23CCN(CCCOCCCn2ccc4cc(ccc4c2=O)-c2cnc1[nH]2)CC3 [Compound 12] ... 9.49
CCC(=O)CCCCC[C@@H]1NC(=O)[C@H]2CC23CCN(CCCOCCn2ccc4cc(ccc4c2=O)-c2cnc1[nH]2)CC3 [Compound 11] ... 8.59

Prompt line: Query the reported pIC50 for HDAC3/SMRT heterodimer (Homo sapiens, UniProt O15379); item: CCC(=O)CCCCC[C@H](NC(=O)[C@H]1CC12CCN(CC)CC2)c1[nH]c2nc1C(=O)NCCC/C=C\c1cccc-2c1 [Compound 14]
Response line: 6.95

Prompt line: Now consider CCC(=O)CCCCC[C@@H]1NC(=O)[C@H]2CC23CCN(C/C=C/CN2C4CCC2c2cc(ccc24)-c2cnc1[nH]2)CC3 (stereo partly shown) [Compound 3] and answer again.
Response line: 9.07

Prompt line: Now consider CCC(=O)CCCCC[C@H](NC(=O)[C@H]1CC12CCN(CC)CC2)c1[nH]c2nc1C(=O)NCCCCCc1cccc-2c1 [Compound 13] .
Response line: 6.99

###

molecules and their reported IC50
Target: HDAC6 (Homo sapiens, UniProt Q9UBN7)
Sequence (Q9UBN7 1-1215): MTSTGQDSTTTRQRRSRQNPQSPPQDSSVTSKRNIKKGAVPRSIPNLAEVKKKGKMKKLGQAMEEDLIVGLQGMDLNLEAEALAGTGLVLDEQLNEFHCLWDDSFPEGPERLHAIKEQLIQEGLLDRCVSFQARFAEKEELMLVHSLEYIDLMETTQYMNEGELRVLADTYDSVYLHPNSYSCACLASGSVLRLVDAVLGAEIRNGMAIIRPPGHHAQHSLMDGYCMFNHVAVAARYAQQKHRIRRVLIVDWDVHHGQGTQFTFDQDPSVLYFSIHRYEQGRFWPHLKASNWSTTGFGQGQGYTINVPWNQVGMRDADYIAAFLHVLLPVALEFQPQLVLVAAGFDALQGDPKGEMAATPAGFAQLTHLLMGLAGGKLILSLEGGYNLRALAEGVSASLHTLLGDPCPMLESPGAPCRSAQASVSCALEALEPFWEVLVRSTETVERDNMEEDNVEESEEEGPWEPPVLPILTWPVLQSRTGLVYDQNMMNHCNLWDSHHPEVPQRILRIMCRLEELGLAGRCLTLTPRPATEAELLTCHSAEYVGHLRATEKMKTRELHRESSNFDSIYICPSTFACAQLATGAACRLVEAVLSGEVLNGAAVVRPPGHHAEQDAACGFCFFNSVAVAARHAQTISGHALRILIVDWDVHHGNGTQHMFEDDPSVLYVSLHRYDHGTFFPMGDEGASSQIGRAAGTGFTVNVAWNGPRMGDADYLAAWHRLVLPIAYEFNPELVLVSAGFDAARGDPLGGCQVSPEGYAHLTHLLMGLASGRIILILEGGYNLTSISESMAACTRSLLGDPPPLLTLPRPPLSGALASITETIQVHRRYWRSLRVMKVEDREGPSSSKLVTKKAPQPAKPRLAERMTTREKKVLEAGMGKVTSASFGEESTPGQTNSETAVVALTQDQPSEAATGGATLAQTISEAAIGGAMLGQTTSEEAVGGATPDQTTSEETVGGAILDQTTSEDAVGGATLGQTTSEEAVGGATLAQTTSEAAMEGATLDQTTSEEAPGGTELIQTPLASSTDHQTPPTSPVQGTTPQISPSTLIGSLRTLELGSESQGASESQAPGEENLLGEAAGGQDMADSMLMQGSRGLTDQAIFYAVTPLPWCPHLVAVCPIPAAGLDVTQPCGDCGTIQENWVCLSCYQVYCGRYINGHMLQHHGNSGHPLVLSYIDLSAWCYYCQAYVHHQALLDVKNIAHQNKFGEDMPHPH
Assay: HDAC6 inhibition, modified Fluor-de-Lys assay
Format: biochemical
Conditions: 3 h pre-incubation, 1.3 nM enzyme, 2.5 μM substrate BML-KI104; read-out: HDAC-6 IC50

CCC(=O)CCCCC[C@H](NC(=O)[C@H]1CC12CCN(CC)CC2)c1[nH]c2nc1C(=O)NCCC/C=C/c1cccc-2c1 [Compound 15] ... > 900 nM

Moving on to the next molecule.
Prompt line: # query: IC50 of entry CCC(=O)CCCCC[C@H](NC(=O)[C@H]1CC12CCN(CC)CC2)c1[nH]c2nc1C(=O)NCCC/C=C\c1cccc-2c1 [Compound 14]
Response line: > 90 nM

###

Target: HDAC2 (Homo sapiens)
Construct: Full length human HDAC2-FLAG was expressed in baculovirus infected Sf9 cells; FLAG (C); host or cells: baculovirus infected Sf9 cells
Experiment: HDAC2 inhibition, modified Fluor-de-Lys assay
Type: biochemical
Settings: 3 h pre-incubation, 1.5 nM enzyme, 40 μM substrate BML-KI104; read-out: HDAC-2 IC50
endpoint: IC50 (nM)
Respond with the bare value in nM.

Check out these entries, answers already filled in.
CCC(=O)CCCCC[C@@H]1NC(=O)[C@H]2CC23CCN(CCCCN2C4CCC2c2cc(ccc24)-c2cnc1[nH]2)CC3 (stereo partly drawn) ... 148
CCC(=O)CCCCC[C@@H]1NC(=O)[C@H]2CC23CCN(C/C=C/CN2C4CCC2c2cc(ccc24)-c2cnc1[nH]2)CC3 (stereo partly drawn) ... 7

Please turn your attention to the following entry.
Prompt line: Recorded IC50 of CCC(=O)CCCCC[C@@H]1NC(=O)[C@H]2CC23CCN(CCCCN2C4CCC2c2c(cccc24)-c2cnc1[nH]2)CC3 (stereo partly drawn) , please.
Response line: 176

###

Target: HDAC8 (Homo sapiens, UniProt Q9BY41)
Construct: purchased Enzo Life Sciences (Farmingdale, N.Y.) BMIL-SE145-0100
Sequence (Q9BY41 1-377): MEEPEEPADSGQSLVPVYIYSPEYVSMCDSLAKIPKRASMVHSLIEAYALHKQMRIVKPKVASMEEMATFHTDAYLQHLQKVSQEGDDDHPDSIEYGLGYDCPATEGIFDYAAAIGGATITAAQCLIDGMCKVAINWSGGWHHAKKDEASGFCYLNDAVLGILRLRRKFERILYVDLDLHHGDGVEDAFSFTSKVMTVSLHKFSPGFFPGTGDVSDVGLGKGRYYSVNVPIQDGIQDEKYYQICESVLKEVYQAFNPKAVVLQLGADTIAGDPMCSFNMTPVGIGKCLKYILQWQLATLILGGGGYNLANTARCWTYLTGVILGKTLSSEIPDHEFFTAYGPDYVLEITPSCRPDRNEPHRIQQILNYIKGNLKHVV
Assay: HDAC8 inhibition, modified Fluor-de-Lys assay
Type: biochemical
Details: 3 h pre-incubation, […] enzyme, 200 μM substrate BML-KI178; read-out: HDAC-8 IC50
endpoint: IC50 (nM)
Respond with the bare value in nM.

Prompt line: Fill blank: measured IC50 of the molecule CCC(=O)CCCCC[C@@H]1NC(=O)[C@H]2CC23CCN(CCCOCCCn2ccc4cc(ccc4c2=O)-c2cnc1[nH]2)CC3 is ____.
Response line: 808
